Molecular target: UniProt:P9WMR3
Sequence (P9WMR3 whole entry): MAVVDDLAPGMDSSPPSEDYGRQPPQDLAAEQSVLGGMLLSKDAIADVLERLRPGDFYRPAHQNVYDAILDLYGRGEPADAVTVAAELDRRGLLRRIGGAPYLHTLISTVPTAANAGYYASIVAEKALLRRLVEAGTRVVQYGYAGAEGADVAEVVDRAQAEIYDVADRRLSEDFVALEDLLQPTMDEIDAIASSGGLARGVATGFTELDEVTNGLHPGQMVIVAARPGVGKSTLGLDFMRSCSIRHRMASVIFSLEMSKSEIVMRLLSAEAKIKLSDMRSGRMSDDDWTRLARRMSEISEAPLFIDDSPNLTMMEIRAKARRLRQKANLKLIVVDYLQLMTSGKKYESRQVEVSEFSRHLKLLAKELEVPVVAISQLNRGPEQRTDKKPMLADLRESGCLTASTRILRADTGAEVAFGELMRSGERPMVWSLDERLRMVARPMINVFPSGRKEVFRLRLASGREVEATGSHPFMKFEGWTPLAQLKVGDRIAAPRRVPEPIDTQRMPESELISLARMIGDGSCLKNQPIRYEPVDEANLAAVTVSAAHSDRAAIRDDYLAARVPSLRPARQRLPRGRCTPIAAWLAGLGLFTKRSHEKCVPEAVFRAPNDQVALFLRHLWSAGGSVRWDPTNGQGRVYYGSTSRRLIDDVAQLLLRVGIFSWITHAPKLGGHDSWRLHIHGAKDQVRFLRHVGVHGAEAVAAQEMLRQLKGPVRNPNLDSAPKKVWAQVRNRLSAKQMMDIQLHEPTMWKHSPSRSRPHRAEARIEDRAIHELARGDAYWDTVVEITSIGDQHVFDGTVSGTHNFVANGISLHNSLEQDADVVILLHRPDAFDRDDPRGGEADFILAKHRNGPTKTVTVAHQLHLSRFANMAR
Assay: DnaB intein splicing inhibitors, dose response, biochemical, cell-free fluorescence (AID 449749)
Type: functional
Active and inactive are the calls of the source.
Each record here notes measured AC50.

COMPOUND: CC(C)S(=O)(=O)C1=NSC2=NC(=O)/C(=C\c3ccc(OC(=O)c4ccco4)cc3)C(=N)N21
AC50: 17 µM (active)

COMPOUND: O=C(NC1=C(Nc2ccc(F)cc2)C(=O)c2ccccc2C1=O)c1ccc(Cl)cc1
AC50: 11.8 µM (active)

COMPOUND: CS(=O)(=O)c1ncc(Cl)c(C(=O)Nc2ccc3ccccc3c2)n1
AC50: 2.49 µM (active)

COMPOUND: NC(=O)CC[C@@H]1NC(=O)[C@H](CO)NC(=O)c2cc([N+](=O)[O-])cc(I)c2NCC[C@@H](C(N)=O)NC1=O
AC50: 47.5 µM (active)

COMPOUND: Cc1ccc(C)c(-c2ccc(=O)n(Cc3cccc(Br)c3)n2)c1
AC50: 4.88 µM (active)

COMPOUND: CC1=NNC(=O)/C1=C\c1cn(-c2ccccc2)nc1-c1ccccc1
AC50: 1.92 µM (active)

COMPOUND: CCn1c(COc2cccc3ccccc23)nnc1SCC(N)=O
AC50: 273 µM (active)

COMPOUND: COC(=O)C(C)Sc1ncnc2c1nnn2-c1ccc(F)cc1 (centres undefined)
AC50: 5.57 µM (active)

COMPOUND: O=C1NC(c2ccc(-c3ccccc3[N+](=O)[O-])o2)C(C(=O)c2ccc(F)cc2)C(O)(C(F)(F)F)N1 (centres undefined)
AC50: 13.3 µM (active)

---

# EC50 per record follows
biological target: Luciferin 4-monooxygenase (Photinus pyralis, UniProt P08659); assay: Counter Screen for Luciferase-based Assay Positives. [Related pubchem assays: 620, 618, 411 ]
Sequence (P08659 whole entry): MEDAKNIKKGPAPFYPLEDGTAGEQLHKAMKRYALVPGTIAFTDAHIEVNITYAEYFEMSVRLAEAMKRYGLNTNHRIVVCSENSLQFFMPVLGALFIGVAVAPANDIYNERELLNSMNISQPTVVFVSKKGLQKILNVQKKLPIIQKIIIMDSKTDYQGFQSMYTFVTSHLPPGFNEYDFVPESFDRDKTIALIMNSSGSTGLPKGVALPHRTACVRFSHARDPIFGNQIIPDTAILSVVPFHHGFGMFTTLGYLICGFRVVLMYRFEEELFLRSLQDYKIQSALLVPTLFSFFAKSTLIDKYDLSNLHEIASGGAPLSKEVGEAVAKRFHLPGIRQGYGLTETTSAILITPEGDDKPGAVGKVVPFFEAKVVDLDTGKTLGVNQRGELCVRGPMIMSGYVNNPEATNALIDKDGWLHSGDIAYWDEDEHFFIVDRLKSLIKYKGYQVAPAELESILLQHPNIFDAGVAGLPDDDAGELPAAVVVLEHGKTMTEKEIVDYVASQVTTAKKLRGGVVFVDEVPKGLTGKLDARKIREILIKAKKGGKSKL
The source made the active and inactive calls.
PROPERTY: EC50

STRUCTURE: COc1ccc(-n2ncc3c(NC(C)C)ncnc32)cc1
RESULT: < 200 nM (active)
--
STRUCTURE: Cc1oc(-c2ccc3c(c2)OCCO3)cc1C(=O)O
RESULT: 1250 nM (active)
--
STRUCTURE: CN(C)c1ccc(NC(=S)c2ccccn2)cc1
RESULT: 520 nM (active)
--
STRUCTURE: CCCN1C=CC(=C2C(=O)c3ccccc3C2=O)C=C1
RESULT: 980 nM (active)

---

Listed here are compounds together with their documented IC50.
molecular target: High affinity choline transporter 1 (Homo sapiens, UniProt Q9GZV3); experiment: human choline transporter blockers, potency – cell-based, 5-point CRC, membrane potential dye, dose response (AID 504840); format: functional
Sequence (Q9GZV3 whole entry): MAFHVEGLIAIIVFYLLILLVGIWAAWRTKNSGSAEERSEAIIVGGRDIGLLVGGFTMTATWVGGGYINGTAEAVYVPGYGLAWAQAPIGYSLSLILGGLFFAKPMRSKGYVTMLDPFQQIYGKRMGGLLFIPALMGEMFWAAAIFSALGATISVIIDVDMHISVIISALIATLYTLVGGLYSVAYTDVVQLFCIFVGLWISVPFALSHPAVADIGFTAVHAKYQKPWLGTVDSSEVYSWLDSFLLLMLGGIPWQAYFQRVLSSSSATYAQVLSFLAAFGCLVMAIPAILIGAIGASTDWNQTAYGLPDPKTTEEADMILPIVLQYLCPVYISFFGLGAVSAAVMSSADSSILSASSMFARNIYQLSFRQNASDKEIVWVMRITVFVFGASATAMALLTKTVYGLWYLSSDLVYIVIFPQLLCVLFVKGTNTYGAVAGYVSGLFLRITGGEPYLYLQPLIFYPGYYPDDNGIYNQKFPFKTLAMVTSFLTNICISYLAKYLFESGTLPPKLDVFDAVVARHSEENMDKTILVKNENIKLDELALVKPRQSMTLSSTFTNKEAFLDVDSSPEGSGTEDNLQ
Calls of active or inactive are those of the source.
PROPERTY: IC50

COMPOUND: CC1(C)CC2CC(C)(CN2c2ncnc3ccccc23)C1 (centres undefined)
RESULT: 6.74 µM (active)
//
COMPOUND: O=[N+]([O-])c1cc(NS(=O)(=O)c2ccc(Cl)nc2)ccc1Cl
RESULT: 2.4 µM (active)
//
COMPOUND: O=[N+]([O-])c1cc(Br)cc(/C=N/c2ccc3c(c2)OCO3)c1O
RESULT: 9.12 µM (active)
//
COMPOUND: C#CCNc1c(C)c(C)nc2ncnn12
RESULT: 9.35 µM (active)

---

Form field: EC50 (one value per entry).
tested on: Streptococcus; assay: GAS UMAA2166 growth inhibition – luminescence, BacTiterGlo, counter-screen for streptokinase expression inhibitor project, dose response (AID 1915); format: functional, organism-based;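 note: potency for reduction of bacterial viability or growth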
The source made the active and inactive calls.
PROPERTY: EC50

MOLECULE: Cc1c(C(=O)Nc2nonc2-c2ccc(F)cc2)oc2ccc(F)cc12
RESULT: > 150 µM (not active)
//
MOLECULE: CC(C)Cn1c(=O)c(C(=O)Nc2ccccc2S(N)(=O)=O)c(O)c2ccccc21
RESULT: 28.6 µM (active)
//
MOLECULE: Cc1ccccc1N1CCN(C(=O)CCN2C(=O)c3ccccc3C2=O)CC1
RESULT: > 150 µM (not active)
//
MOLECULE: CC(C)(O)c1[nH]c2cc(F)ccc2c1C(C)(C)O
RESULT: 8.02 µM (active)
//
MOLECULE: CCOc1ccc(N2C(=O)/C(=C\NNC(=O)C3COc4ccccc4O3)c3ccccc3C2=O)cc1 (centres undefined)
RESULT: 5.75 µM (active)
//
MOLECULE: O=C(NCc1ccc2c(c1)OCO2)C(=O)NCC1OCCN1S(=O)(=O)c1ccc(Br)cc1 (centres undefined)
RESULT: > 150 µM (not active)
//
MOLECULE: O=C(COc1ccc(F)cc1Cl)Nc1nc(-c2ccccn2)cs1
RESULT: 3.29 µM (active)
//
MOLECULE: CCN1/C(=C/c2ccc3ccccc3[n+]2CC)C=Cc2ccccc21
RESULT: 35 µM (active)
//
MOLECULE: O=C(COc1ccc(F)cc1)Nc1nc(-c2ccccn2)cs1
RESULT: 16.1 µM (active)

---

Catalogue of compounds with associated IC50
target: Fructose-bisphosphate aldolase (Mycobacterium tuberculosis, UniProt P9WQA3); assay: Fluorescence-based biochemical high throughput dose response assay for inhibitors of the fructose-bisphosphate aldolase (FBA) of M. tuberculosis.; format: functional
Sequence (P9WQA3 whole entry): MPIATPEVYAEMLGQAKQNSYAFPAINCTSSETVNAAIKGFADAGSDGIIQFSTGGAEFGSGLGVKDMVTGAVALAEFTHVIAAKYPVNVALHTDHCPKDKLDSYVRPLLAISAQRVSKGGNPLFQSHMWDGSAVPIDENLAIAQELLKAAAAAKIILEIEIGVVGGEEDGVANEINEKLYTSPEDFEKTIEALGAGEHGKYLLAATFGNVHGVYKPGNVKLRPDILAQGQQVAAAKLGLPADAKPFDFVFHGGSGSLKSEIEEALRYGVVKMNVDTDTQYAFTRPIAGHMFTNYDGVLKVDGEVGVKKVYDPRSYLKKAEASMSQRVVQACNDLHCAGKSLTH
The source made the active and inactive calls.
PROPERTY: IC50

STRUCTURE: O=C(NCc1cccc(Cl)c1)C1=CC=CN2CCS(=O)(=O)N=C12
RESULT: 2610 nM (active)

STRUCTURE: CCOc1ccc(-n2nc3ccc(N)cc3n2)cc1
RESULT: 716 nM (active)

STRUCTURE: Cn1cccc1-c1nc2ccccc2n1C
RESULT: 3080 nM (active)

STRUCTURE: COc1ccc(/C=C2\Oc3ccccc3C2=O)cc1
RESULT: 912 nM (active)

---

biological target: Cysteine protease ATG4B (Homo sapiens); assay type: functional;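 note: Fluorescence-based dose-response confirmation assay measuring inhibition of ATG4B activity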
Sequence (Q9Y4P1 whole entry): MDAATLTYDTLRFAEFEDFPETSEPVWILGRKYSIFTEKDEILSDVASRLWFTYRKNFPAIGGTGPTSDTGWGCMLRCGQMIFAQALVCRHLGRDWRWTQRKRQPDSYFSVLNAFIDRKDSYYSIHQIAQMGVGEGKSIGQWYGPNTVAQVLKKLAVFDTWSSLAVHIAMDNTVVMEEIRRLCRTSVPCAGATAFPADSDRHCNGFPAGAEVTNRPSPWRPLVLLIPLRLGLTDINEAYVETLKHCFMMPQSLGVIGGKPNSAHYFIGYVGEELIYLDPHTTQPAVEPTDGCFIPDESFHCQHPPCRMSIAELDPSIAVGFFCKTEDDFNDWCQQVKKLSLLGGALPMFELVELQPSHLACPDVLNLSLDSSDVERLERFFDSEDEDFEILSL
Activity calls are given as the source filed them.
Labels: active, inactive

COMPOUND: COc1cccc(/C=N/NC(=O)c2[nH]c(C)c(C(=O)N/N=C/c3cccc(OC)c3O)c2C)c1O
CLASSIFICATION: active
--
COMPOUND: Clc1ccccc1CSc1nnc(-c2ccco2)c(-c2ccco2)n1
CLASSIFICATION: active
--
COMPOUND: O=C1NC(=S)S/C1=C\c1cc(Cl)cc(Cl)c1O
CLASSIFICATION: active
--
COMPOUND: Cc1cccc2c1N(CCOc1ccc(C(C)(C)C)cc1)C(=O)C2=O
CLASSIFICATION: active
--
COMPOUND: Cc1cccc(N=C(S)Nc2ccc(Oc3ccccc3)cc2)n1
CLASSIFICATION: inactive
--
COMPOUND: Fc1ccc(C2c3[nH]c4ccccc4c3CCN2Cc2cccn2-c2ncccn2)cc1 (stereo unspecified)
CLASSIFICATION: active

---

target: Melanocortin receptor 4 (Homo sapiens); format: functional, cell-based;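 note: Cell-based assay with luminescence read-out, confirmatory dose-response testing for agonist activity of biased ligands at MC4R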;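 note: human U2OS cells with tagged receptor and beta-arrestin; potency of agonists that increase receptor coupling to beta-arrestin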
Sequence (P32245 whole entry): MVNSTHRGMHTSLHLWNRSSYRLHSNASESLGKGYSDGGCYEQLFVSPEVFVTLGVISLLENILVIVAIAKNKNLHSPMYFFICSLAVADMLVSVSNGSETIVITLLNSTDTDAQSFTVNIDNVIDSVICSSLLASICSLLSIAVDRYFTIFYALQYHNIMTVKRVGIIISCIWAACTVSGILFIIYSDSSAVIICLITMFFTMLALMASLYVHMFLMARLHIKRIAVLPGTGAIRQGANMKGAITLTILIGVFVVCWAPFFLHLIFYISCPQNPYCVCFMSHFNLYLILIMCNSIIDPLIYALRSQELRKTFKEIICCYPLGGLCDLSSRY
Calls of active or inactive are those of the source.
Possible outcomes: active, inactive

STRUCTURE: CN(C)CCNC(=O)c1cccc(-c2cc(NC=O)c3ncc(-c4cccc(C(F)(F)F)c4)n3c2)c1
SUBJECT OF TEST: Melanocortin receptor 4 (Homo sapiens)
CLASSIFICATION: inactive
//
STRUCTURE: FC(F)(F)c1cccnc1Oc1ccc(C2=NCCS2)cc1
SUBJECT OF TEST: Melanocortin receptor 4 (Homo sapiens)
CLASSIFICATION: inactive
//
STRUCTURE: Cc1cc(NC(=O)c2cncc(Br)c2)ccc1NC(=O)c1cc2ccccc2o1
SUBJECT OF TEST: Melanocortin receptor 4 (Homo sapiens)
CLASSIFICATION: inactive
//
STRUCTURE: CN(C)CCCNC(=O)c1ccc(-c2nc(-c3ccc(Cl)cc3)cs2)cc1
SUBJECT OF TEST: Melanocortin receptor 4 (Homo sapiens)
CLASSIFICATION: active
//
STRUCTURE: Clc1ccc(C2=Nn3c(nnc3-c3cc(-c4ccccc4)n[nH]3)SC2)cc1
SUBJECT OF TEST: Melanocortin receptor 4 (Homo sapiens)
CLASSIFICATION: inactive

Hello, the source for this data is ChEMBL document CHEMBL1201862, in case you need it.
